experiment: Clearance in male Sprague-Dawley rat at 0.5 mg/kg, iv measured after 2 to 720 mins by LC-MS/MS analysis; assay type: ADME, organism-based; details: in vivo, time 2-720 min
READOUT LABEL: clearance

State its clearance: `CCn1c2ccccc2c2cc(Nc3ccnc(Nc4ccc(C)c(OC)c4)n3)ccc21`
9.53 mL/min/kg

* * *

test: Drug concentration in male mouse plasma at 10 mg/kg, ip measured after 4 hrs by LC-MS/MS analysis; assay type: ADME, organism-based
READOUT LABEL: concentration at 4 h (ng/mL)
Form entry: value (ng/mL) — number only.

State its concentration at 4 h: `CCn1c2ccccc2c2cc(Nc3ccnc(Nc4ccc(C)c(OC)c4)n3)ccc21`
64.7
